Provenance of the data: patent US6413974B1

Measured IC50 by item
# Tested on: MDA-MB-231
# Test: In vitro tumor cell proliferation, MDA-MB-231
# Assay type: cell-based, human
# Assay setup: values marked * (mark not explained); dihydrochloride; read-out: In vitro Tumor Cell Proliferation (IC50, μM) Breast MDA-MB-231
Structures can show the parent of a compound that is named as a salt.
Reported metric: IC50 (µM)

- Molecule: "N[C@H]1CC[C@H](Nc2nc(NCCc3c[nH]c4ccccc34)c3ncn(C4CCCC4)c3n2)CC1 [Example 2, dihydrochloride]"
  Unit symbol: "µM"
  Result: 6.6
- Molecule: "CCCCCNc1nc(N[C@H]2CC[C@H](N)CC2)nc2c1ncn2C1CCCC1 [Example 26, dihydrochloride]"
  Unit symbol: "µM"
  Result: 1.4
- Molecule: "N[C@H]1CC[C@H](Nc2nc(NCc3ccncc3)c3ncn(C4CCCC4)c3n2)CC1 [Example 8, dihydrochloride]"
  Unit symbol: "µM"
  Result: 8.1
- Molecule: "N[C@H]1CC[C@H](Nc2nc(NCCc3cccnc3)c3ncn(C4CCCC4)c3n2)CC1 [Example 7, dihydrochloride]"
  Unit symbol: "µM"
  Result: 7
- Molecule: "N[C@H]1CC[C@H](Nc2nc(NCCc3ccc(O)cc3)c3ncn(C4CCCC4)c3n2)CC1 [Example 55, dihydrochloride]"
  Unit symbol: "µM"
  Result: 5.6

====

# Target: cdk4/cyclin D1 (Homo sapiens)
# Sequence (P11802 whole entry): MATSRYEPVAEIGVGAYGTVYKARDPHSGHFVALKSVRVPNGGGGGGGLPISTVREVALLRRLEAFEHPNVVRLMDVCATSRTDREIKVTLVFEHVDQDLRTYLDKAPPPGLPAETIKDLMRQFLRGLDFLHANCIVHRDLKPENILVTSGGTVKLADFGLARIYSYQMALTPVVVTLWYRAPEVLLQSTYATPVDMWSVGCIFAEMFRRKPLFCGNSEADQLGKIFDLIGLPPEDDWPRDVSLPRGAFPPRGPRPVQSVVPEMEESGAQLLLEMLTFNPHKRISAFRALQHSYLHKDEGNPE
# Sequence (P24385 whole entry partner): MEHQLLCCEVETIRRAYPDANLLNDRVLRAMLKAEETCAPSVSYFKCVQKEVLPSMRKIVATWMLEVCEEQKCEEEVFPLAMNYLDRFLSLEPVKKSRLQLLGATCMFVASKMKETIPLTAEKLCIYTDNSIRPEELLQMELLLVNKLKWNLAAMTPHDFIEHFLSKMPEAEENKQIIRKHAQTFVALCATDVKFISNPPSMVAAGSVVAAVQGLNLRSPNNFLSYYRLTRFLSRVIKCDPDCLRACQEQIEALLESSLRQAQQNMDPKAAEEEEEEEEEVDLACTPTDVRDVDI
# Test: Cyclin-dependent kinase 4 Assay
# Assay setup: cdk4/cyclin D1, GST-Rb substrate, 10 μM ATP, 30 min at 37° C.; read-out: CDK4 Inhibition IC50
Structures can show the parent of a compound that is named as a salt.

- Compound: "CCNc1nc(N[C@H]2CC[C@H](N)CC2)nc2c1ncn2C1CCCC1 [Example 33, dihydrochloride]"
  Unit symbol: "nM"
  Relation operator: "="
  IC50: 180
- Compound: "N[C@H]1CC[C@H](Nc2nc(NCc3ccco3)c3ncn(C4CCCC4)c3n2)CC1 [Example 38, dihydrochloride]"
  Unit symbol: "nM"
  Relation operator: "="
  IC50: 1400
- Compound: "C[C@H](Nc1nc(N[C@H]2CC[C@H](N)CC2)nc2c1ncn2C1CCCC1)c1ccccc1 [Example 6, dihydrochloride]"
  Unit symbol: "nM"
  Relation operator: ">"
  IC50: 100000
- Compound: "NCCCCCCCCNc1nc(N[C@H]2CC[C@H](N)CC2)nc2c1ncn2C1CCCC1 [Example 56, dihydrochloride]"
  Unit symbol: "nM"
  Relation operator: "="
  IC50: 860
- Compound: "N[C@H]1CC[C@H](Nc2nc(NCCc3ccc4c(c3)OCO4)c3ncn(C4CCCC4)c3n2)CC1 [Example 4, dihydrochloride]"
  Unit symbol: "nM"
  Relation operator: ">"
  IC50: 100000
- Compound: "CCCCCCCCNc1nc(N[C@H]2CC[C@H](N)CC2)nc2c1ncn2C1CCCC1 [Example 20, dihydrochloride]"
  Unit symbol: "nM"
  Relation operator: "="
  IC50: 2400
- Compound: "CC(C)n1cnc2c(NCc3cccc(I)c3)nc(N[C@H]3CC[C@H](N)CC3)nc21 [Example 51, dihydrochloride]"
  Unit symbol: "nM"
  Relation operator: "="
  IC50: 2100

====

In this section we review reported IC50 values for a set of molecules.
# System: A549
# Test: In vitro tumor cell proliferation, A549
# Type: cell-based, human
# Assay setup: values marked * (mark not explained); dihydrochloride; read-out: In vitro Tumor Cell Proliferation (IC50, μM) Lung A549
Structures can show the parent of a compound that is named as a salt.
Reported metric: IC50 (µM)

- Molecule: "N[C@H]1CC[C@H](Nc2nc(NCCCO)c3ncn(C4CCCC4)c3n2)CC1 [Example 53, dihydrochloride]"
  Unit symbol: "µM"
  Result: 9.3
- Molecule: "CCNc1nc(N[C@H]2CC[C@H](N)CC2)nc2c1ncn2C1CCCC1 [Example 33, dihydrochloride]"
  Unit symbol: "µM"
  Result: 1.8
- Molecule: "CCCNc1nc(N[C@H]2CC[C@H](N)CC2)nc2c1ncn2C1CCCC1 [Example 44, dihydrochloride]"
  Unit symbol: "µM"
  Result: 0.47
- Molecule: "NCCCCNc1nc(N[C@H]2CC[C@H](N)CC2)nc2c1ncn2C1CCCC1 [Example 5, dihydrochloride]"
  Unit symbol: "µM"
  Result: 1.1
- Molecule: "N[C@H]1CC[C@H](Nc2nc(NNCCc3ccccc3)c3ncn(C4CCCC4)c3n2)CC1 [Example 35, dihydrochloride]"
  Unit symbol: "µM"
  Result: 2.5
- Molecule: "N[C@H]1CC[C@H](Nc2nc(NCCc3ccc(O)cc3)c3ncn(C4CCCC4)c3n2)CC1 [Example 55, dihydrochloride]"
  Unit symbol: "µM"
  Result: 6.4
- Molecule: "CC(CCCC(C)(C)O)Nc1nc(N[C@H]2CC[C@H](N)CC2)nc2c1ncn2C1CCCC1 (relative stereo) [Example 54, dihydrochloride]"
  Unit symbol: "µM"
  Result: 0.63

====

Below, each entry is listed with its recorded IC50.
# Tested on: MDA-MB-231
# Test: In vitro tumor cell proliferation, MDA-MB-231
# Assay type: cell-based, human
# Assay setup: Homo sapiens, MDA-MB-231, values without *; read-out: In vitro Tumor Cell Proliferation (IC50, μM) Breast MDA-MB-231
Where a name gives a salt, the structure may show the parent alone.

- Molecule: "N[C@H]1CC[C@H](Nc2nc(NCCCn3ccnc3)c3ncn(C4CCCC4)c3n2)CC1 [Example 46, dihydrochloride]"
  IC50 / µM: 5.2
- Molecule: "N[C@H]1CC[C@H](Nc2nc(NCC3CC3)c3ncn(C4CCCC4)c3n2)CC1 [Example 34, dihydrochloride]"
  IC50 / µM: 1.2
- Molecule: "N[C@H]1CC[C@H](Nc2nc(NCc3ccc(Cl)cc3Cl)c3ncn(C4CCCC4)c3n2)CC1 [Example 48, dihydrochloride]"
  IC50 / µM: 3
- Molecule: "N[C@H]1CC[C@H](Nc2nc(NCc3ccc(F)cc3)c3ncn(C4CCCC4)c3n2)CC1 [Example 50, dihydrochloride]"
  IC50 / µM: 3.2
- Molecule: "CC(C)n1cnc2c(NCC3CC3)nc(N[C@H]3CC[C@H](N)CC3)nc21 [Example 32, dihydrochloride]"
  IC50 / µM: 16
- Molecule: "N[C@H]1CC[C@H](Nc2nc(NCc3ccc(Cl)cc3F)c3ncn(C4CCCC4)c3n2)CC1 [Example 40, dihydrochloride]"
  IC50 / µM: 3.1
- Molecule: "C[C@@H](Nc1nc(NC2CCC(N)CC2)nc2c1ncn2C1CCCC1)c1ccccc1 (some centres unmarked) [Example 16, dihydrochloride]"
  IC50 / µM: 5.9
- Molecule: "CCCCNc1nc(N[C@H]2CC[C@H](N)CC2)nc2c1ncn2C1CCCC1 [Example 3, dihydrochloride]"
  IC50 / µM: 0.95
- Molecule: "CC(C)CCNc1nc(N[C@H]2CC[C@H](N)CC2)nc2c1ncn2C1CCCC1 [Example 36, dihydrochloride]"
  IC50 / µM: 1.4
- Molecule: "N[C@H]1CC[C@H](Nc2nc(NCc3ccc(Cl)cc3)c3ncn(C4CCCC4)c3n2)CC1 [Example 27, dihydrochloride]"
  IC50 / µM: 7
- Molecule: "N[C@H]1CC[C@H](Nc2nc(NCc3cccc(I)c3)c3ncn(C4CCCC4)c3n2)CC1 [Example 1, dihydrochloride]"
  IC50 / µM: 1.1
